- Test system: RARg homodimer (NR concentration 270 nM)
- method: PBM binding z-score (relative to random genomic background probes); higher = stronger binding; sequences stand for … in GC…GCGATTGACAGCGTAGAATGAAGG
assay-metric: PBM binding z-score
Give the value as a plain number.

Before answering, review these 3 worked examples.
seq: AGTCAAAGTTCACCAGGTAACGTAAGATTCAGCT
PBM binding z-score: 6.53
--
seq: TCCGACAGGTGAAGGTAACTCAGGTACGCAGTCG
PBM binding z-score: 0.374
--
seq: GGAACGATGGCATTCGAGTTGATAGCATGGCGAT
PBM binding z-score: -0.016

Log: RARg homodimer (NR concentration 270 nM), sequence "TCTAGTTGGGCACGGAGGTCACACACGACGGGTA" , PBM binding z-score = 3.83

Log: RARg homodimer (NR concentration 270 nM), sequence "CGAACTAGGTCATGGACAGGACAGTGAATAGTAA" , PBM binding z-score = 4.95

Log: RARg homodimer (NR concentration 270 nM), sequence "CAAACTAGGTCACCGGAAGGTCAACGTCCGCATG" , PBM binding z-score = 8.16

----------
- Tested on: THRa:RXRa (NR concentration 90 nM, RXRa partner concentration 90 nM)
- method: PBM binding z-score (relative to random genomic background probes); higher = stronger binding; sequences stand for … in GC…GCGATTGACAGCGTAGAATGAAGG
Reported PBM binding z-score values are given for each entry in this list.
Give the value as a plain number.

seq: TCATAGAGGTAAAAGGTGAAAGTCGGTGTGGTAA
PBM binding z-score: 1.97

seq: TCTAGTAGATCAGCAGGTTAAGAAAGCTGGCCAA
PBM binding z-score: 0.0763

seq: ACTTACGGGTCAACGAGGTTAAAGCACGCGTATA
PBM binding z-score: 4.25

seq: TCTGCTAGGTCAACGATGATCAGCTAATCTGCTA
PBM binding z-score: 2.64

seq: GCTCGGAGGACAAGGTCAGAGATTTGTCCGTAGA
PBM binding z-score: 2.82

seq: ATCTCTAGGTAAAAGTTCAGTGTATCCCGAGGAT
PBM binding z-score: 1.43

seq: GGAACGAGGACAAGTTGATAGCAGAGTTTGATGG
PBM binding z-score: 2.53

seq: CCGACGGGGGCATAAGGTTACCATAAGCCAGCCC
PBM binding z-score: 3.58

// field: PBM binding z-score; key: "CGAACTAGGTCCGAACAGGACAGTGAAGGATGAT" ; value = 0.105

// field: PBM binding z-score; key: "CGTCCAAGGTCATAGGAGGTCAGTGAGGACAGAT" ; value = 5.22

// field: PBM binding z-score; key: "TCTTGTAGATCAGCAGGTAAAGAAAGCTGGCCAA" ; value = -0.108

// field: PBM binding z-score; key: "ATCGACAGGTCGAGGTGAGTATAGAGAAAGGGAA" ; value = 1.59

// field: PBM binding z-score; key: "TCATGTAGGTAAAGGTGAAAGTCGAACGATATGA" ; value = 1.28

// field: PBM binding z-score; key: "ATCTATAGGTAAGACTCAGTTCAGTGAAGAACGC" ; value = 0.633

// field: PBM binding z-score; key: "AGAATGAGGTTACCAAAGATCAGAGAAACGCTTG" ; value = 2.64

// field: PBM binding z-score; key: "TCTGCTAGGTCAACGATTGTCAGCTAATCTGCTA" ; value = 2.77

// field: PBM binding z-score; key: "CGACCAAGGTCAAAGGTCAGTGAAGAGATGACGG" ; value = 4.71

// field: PBM binding z-score; key: "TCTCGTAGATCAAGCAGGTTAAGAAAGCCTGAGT" ; value = 0.103

----------
- Tested on: VDR:RXRa (NR concentration 270 nM, RXRa partner concentration 90 nM)
- method: PBM binding z-score (relative to random genomic background probes); higher = stronger binding; sequences stand for … in GC…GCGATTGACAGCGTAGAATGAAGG
assay-metric: PBM binding z-score
Give the value as a plain number.

// field: PBM binding z-score; key: "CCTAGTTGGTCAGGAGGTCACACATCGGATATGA" ; value = 3.76

// field: PBM binding z-score; key: "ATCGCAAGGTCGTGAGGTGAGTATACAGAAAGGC" ; value = 2.33

// field: PBM binding z-score; key: "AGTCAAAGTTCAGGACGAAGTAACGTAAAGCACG" ; value = 2

// field: PBM binding z-score; key: "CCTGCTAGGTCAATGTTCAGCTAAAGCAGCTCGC" ; value = 1.05

// field: PBM binding z-score; key: "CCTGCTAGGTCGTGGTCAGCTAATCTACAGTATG" ; value = -0.0552

// field: PBM binding z-score; key: "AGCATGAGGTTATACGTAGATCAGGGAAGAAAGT" ; value = 1.44

----------
Reported PBM binding z-score values are given for each entry in this list.
- Test system: PPARa:RXRa (NR concentration 270 nM, RXRa partner concentration 90 nM)
- method: PBM binding z-score (relative to random genomic background probes); higher = stronger binding; sequences stand for … in GC…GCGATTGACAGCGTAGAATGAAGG
Give the value as a plain number.

seq: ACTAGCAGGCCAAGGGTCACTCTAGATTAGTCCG
assayed-target: PPARa:RXRa (NR concentration 270 nM, RXRa partner concentration 90 nM)
PBM binding z-score: 4.44

seq: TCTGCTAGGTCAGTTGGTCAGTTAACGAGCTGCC
assayed-target: PPARa:RXRa (NR concentration 270 nM, RXRa partner concentration 90 nM)
PBM binding z-score: 1.37

seq: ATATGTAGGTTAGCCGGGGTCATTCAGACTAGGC
assayed-target: PPARa:RXRa (NR concentration 270 nM, RXRa partner concentration 90 nM)
PBM binding z-score: 5.6

seq: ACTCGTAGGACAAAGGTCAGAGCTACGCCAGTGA
assayed-target: PPARa:RXRa (NR concentration 270 nM, RXRa partner concentration 90 nM)
PBM binding z-score: 5.11

seq: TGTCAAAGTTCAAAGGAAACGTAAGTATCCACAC
assayed-target: PPARa:RXRa (NR concentration 270 nM, RXRa partner concentration 90 nM)
PBM binding z-score: 4.94

Next:
// field: PBM binding z-score; key: "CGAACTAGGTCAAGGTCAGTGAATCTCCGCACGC" ; value = 5.17

----------
Reported PBM binding z-score values are given for each entry in this list.
- Test system: LXRa homodimer (NR concentration 270 nM)
- method: PBM binding z-score (relative to random genomic background probes); higher = stronger binding; sequences stand for … in GC…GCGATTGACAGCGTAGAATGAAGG
Give the value as a plain number.

Before answering, review these 5 worked examples.
seq: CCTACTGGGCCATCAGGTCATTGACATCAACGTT
measurement: 1.29
//
seq: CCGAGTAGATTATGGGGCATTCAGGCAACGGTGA
measurement: -0.262
//
seq: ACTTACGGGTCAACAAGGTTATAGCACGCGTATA
measurement: 0.809
//
seq: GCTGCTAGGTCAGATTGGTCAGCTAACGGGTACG
measurement: -0.166
//
seq: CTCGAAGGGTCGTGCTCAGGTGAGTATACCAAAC
measurement: -0.37

// field: PBM binding z-score; key: "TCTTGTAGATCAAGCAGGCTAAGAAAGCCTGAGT" ; value = -0.525

// field: PBM binding z-score; key: "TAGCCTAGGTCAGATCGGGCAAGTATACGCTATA" ; value = -0.305

// field: PBM binding z-score; key: "CGAACTAGGTCAAGGACAGGGAATCTCCGCACGC" ; value = 0.324

// field: PBM binding z-score; key: "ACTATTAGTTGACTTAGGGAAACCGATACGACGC" ; value = 0.512

// field: PBM binding z-score; key: "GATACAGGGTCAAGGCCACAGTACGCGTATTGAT" ; value = 0.0617

// field: PBM binding z-score; key: "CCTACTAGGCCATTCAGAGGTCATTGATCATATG" ; value = 7.03

// field: PBM binding z-score; key: "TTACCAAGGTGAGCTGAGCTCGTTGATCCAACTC" ; value = -0.993

// field: PBM binding z-score; key: "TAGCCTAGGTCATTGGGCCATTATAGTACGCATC" ; value = 1.08

----------
- Tested on: PPARg homodimer (NR concentration 180 nM)
- method: PBM binding z-score (relative to random genomic background probes); higher = stronger binding; sequences stand for … in GC…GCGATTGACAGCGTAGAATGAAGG
assay-metric: PBM binding z-score
Give the value as a plain number.

Before answering, review these 4 worked examples.
seq: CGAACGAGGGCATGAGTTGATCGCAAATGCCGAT
assayed-target: PPARg homodimer (NR concentration 180 nM)
PBM binding z-score: -0.0725
--
seq: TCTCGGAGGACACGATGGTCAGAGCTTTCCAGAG
assayed-target: PPARg homodimer (NR concentration 180 nM)
PBM binding z-score: -1.04
--
seq: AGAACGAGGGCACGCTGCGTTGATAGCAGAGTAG
assayed-target: PPARg homodimer (NR concentration 180 nM)
PBM binding z-score: 0.0277
--
seq: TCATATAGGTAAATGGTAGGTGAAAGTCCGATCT
assayed-target: PPARg homodimer (NR concentration 180 nM)
PBM binding z-score: 1.37

// field: PBM binding z-score; key: "ATCGAAAGGGCGAGGTGAGTATAGAGAAAGGGAA" ; value = 0.793

// field: PBM binding z-score; key: "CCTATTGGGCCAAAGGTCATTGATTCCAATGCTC" ; value = 4.43
